test: M. tuberculosis H37Rv growth inhibitors, H37Rv strain (AID 1626); settings: active compounds read high, concentration not given here;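 also: bacteria incubated seven days before Alamar blue readout; 0% = bacteria only wells and 100% = bacteria with antibiotic wells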
The whole screen tested about 220,000 compounds, of which about 2,000 (0.91%) were called active. Another 2% or so got no clear call; they are omitted. These entries were drawn from the full list. Entries with a potency or affinity are not part of this list.
parameter_measured: inhibition (%)

{"molecule": "Cc1cccc(C(=O)N=c2c(C#N)cc3c(=O)n4cccc(C)c4nc3n2Cc2ccco2)c1", "reported_value": -8.85}
{"molecule": "CCOC(=O)c1sc2nc(CC(=O)OC)nc(NCc3ccc(F)cc3)c2c1C", "reported_value": -2.66}
{"molecule": "Cc1onc(-c2c(F)cccc2Cl)c1C(=O)Nc1nccs1", "reported_value": 6.17}
{"molecule": "Cc1ccsc1C(=O)C1CCCN(Cc2cc(F)ccc2-n2cccn2)C1 (stereo unspecified)", "reported_value": 10.8}
{"molecule": "COCCNc1nc(-c2ccc(OC)cc2)c(-c2ccc(OC)cc2)s1", "reported_value": 15.7}
{"molecule": "CCOC(=O)c1sc(NC(=O)CCCCl)nc1C", "reported_value": 6.92}
{"molecule": "COC(=O)[C@@H]1CCCN1Cc1c(C(=O)N2CCOCC2)nc2c(C)cccn12", "reported_value": -6.22}
{"molecule": "CC(C)Cn1c(N)c(C(=O)COC(=O)c2ccc(F)cc2)c(=O)n(C)c1=O", "reported_value": 6.86}
{"molecule": "Cc1ccccc1OCc1csc(N)n1", "reported_value": 3.59}
{"molecule": "Cc1c(C)[n+](=O)c2c(n1[O-])C(Br)CCC2Br (stereo unspecified)", "reported_value": 0.09}
{"molecule": "O=C(Cc1ccccc1)N/N=C/c1ccccc1Cl", "reported_value": 7.74}

* * *

experiment: M. tuberculosis H37Rv growth inhibitors, H37Rv strain (AID 1626); settings: active compounds read high, concentration not given here;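 also: bacteria incubated seven days before Alamar blue readout; 0% = bacteria only wells and 100% = bacteria with antibiotic wells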
Among all 220,000 compounds or so, about 2,000 (0.91%) were called active. Not shown: some 2% with an inconclusive outcome. Not all results are given here. Entries with a potency or affinity are not part of this list.

{"compound": "CC(C)OC(=O)CSc1nnc(-c2ccc(Cl)cc2Cl)n1N", "inhibition (%)": -12.6}
{"compound": "CCOC(=O)C(C)Sc1ncc(OC)c(Sc2ccc(Cl)cc2)n1 (stereo unspecified)", "inhibition (%)": 7.19}
{"compound": "COc1ccc(Sc2cc(C(F)(F)F)nc(-c3ccccn3)n2)cc1", "inhibition (%)": 4.59}
{"compound": "COc1ccccc1-c1nc(-c2ccccn2)no1", "inhibition (%)": 0.6}
{"compound": "COc1ccc(Cl)cc1C(=O)NNC(=O)CCNC(C)=O", "inhibition (%)": -6.02}
{"compound": "Cc1ccc(C2C(C(=O)c3sc(C)nc3C)=C(O)C(=O)N2CCN(C)C)o1 (stereo unspecified)", "inhibition (%)": -6.12}
{"compound": "COCCNC(=O)c1cn(C)c2ccc(S(=O)(=O)N(C)C3CCCCC3)cc2c1=O", "inhibition (%)": -12}
{"compound": "FC(F)(F)c1cc(Sc2ccccc2)nc(-c2ccccn2)n1", "inhibition (%)": 4.07}
{"compound": "Nc1nc(Nc2cccc(F)c2)nc(NCCO)c1[N+](=O)[O-]", "inhibition (%)": 7.19}
{"compound": "CCCc1nnc(SCC(=O)N2CCCCC2C)n1CC (stereo unspecified)", "inhibition (%)": -2.59}
{"compound": "COc1ccccc1-c1nnc(SCC(=O)OC(C)C)o1", "inhibition (%)": 58.4}
